All values here come from patent US6525001B1.

tested on: sugar beet (Beta vulgaris); test: Test B pre-/postemergence; format: in vivo; conditions: Rate 62 g/ha, Postemergence
endpoint.label: Sugarbeets plant response rating

                               smiles_input                    endpoint_label  observed
0  Cc1cnc(-n2cnc(C(F)(F)F)n2)nc1C(=O)c1cccc(OC(F)(F)F)c1  Sugarbeets plant response rating         9
1  O=C(c1cccc(C(F)(F)F)c1)c1ccnc(-c2ccc(C(F)(F)F)cc2)n1  Sugarbeets plant response rating         1
2  Cc1cnc(-n2ccc(C(F)(F)C(F)(F)F)n2)nc1C(=O)c1cccc(OC(F)(F)F)c1  Sugarbeets plant response rating         9
3  N#Cc1ccc(-c2nccc(C(=O)c3cccc(C(F)(F)F)c3)n2)cc1  Sugarbeets plant response rating         0
4  Cc1cnc(-c2ccc(C(F)(F)F)cc2)nc1C(=O)c1cccc(OC(F)(F)F)c1  Sugarbeets plant response rating        10

---

Tested on: velvetleaf (Abutilon theophrasti)
Assay: Test B pre-/postemergence
Format: in vivo
Details: Rate 250 g/ha, Postemergence
Method: […] At the same time, these crop and weed species were also treated with postemergence applications of test chemicals formulated in the same manner. […] Treated plants and controls were maintained in a greenhouse for twelve to sixteen days, after which all species were compared to controls and visually evaluated. […]
Entries and their Plant response rating, Velvetleaf values follow.
endpoint.label: Plant response rating, Velvetleaf

>>> df
                               smiles_input                      target_system                     endpoint_label  observed
0  Cc1cnc(-n2ccc(C(F)(F)F)n2)nc1Cc1cccc(OC(F)(F)F)c1  velvetleaf (Abutilon theophrasti)  Plant response rating, Velvetleaf         9
1  O=C(c1cccc(C(F)(F)F)c1)c1ccnc(-c2ccc(C(F)(F)F)cc2)n1  velvetleaf (Abutilon theophrasti)  Plant response rating, Velvetleaf         1
2  Cc1cnc(-n2cnc(C(F)(F)F)n2)nc1Cc1cccc(C(F)(F)F)c1  velvetleaf (Abutilon theophrasti)  Plant response rating, Velvetleaf         9

---

Each record here notes measured Plant response rating, Crabgrass.
system: crabgrass (Digitaria sanguinalis); assay: Test B pre-/postemergence; type: in vivo; settings: Rate 125 g/ha, Preemergence
endpoint.label: Plant response rating, Crabgrass

>>> df
                                   compound                    endpoint_label  observed
0  CCc1cnc(-n2ccc(C(F)(F)F)n2)nc1C(=O)c1cccc(C#N)c1 [Compound 72]  Plant response rating, Crabgrass         9
1  Cc1cnc(-c2ccc(C(F)(F)F)cc2)nc1Cn1ccc(C#N)n1 [Compound 53]  Plant response rating, Crabgrass         4
2  CCc1cnc(-n2cnc(C(F)(F)F)c2)nc1C(=O)c1cccc(OC(F)(F)F)c1 [Compound 71]  Plant response rating, Crabgrass         2
3  Cc1cnc(-c2ccc(C(F)(F)F)cc2)nc1C(=O)c1ccc(C(F)(F)F)cc1 [Compound 74]  Plant response rating, Crabgrass         0
4  Cc1cnc(-n2ccc(C(F)(F)C(F)(F)F)n2)nc1C(=O)c1cccc(OC(F)(F)F)c1 [Compound 62]  Plant response rating, Crabgrass         3

---

tested on: rape (Brassica napus); assay: Test B pre-/postemergence; format: in vivo; settings: Rate 62 g/ha, Postemergence
endpoint.label: Rape plant response rating

>>> print(df.to_string())
                               smiles_input          target_system  observed
0  Cc1cnc(-n2ccc(C(F)(F)F)n2)nc1C(=O)c1ccc(C(F)(F)F)cc1  rape (Brassica napus)         1
1  Cc1cnc(-c2ccc(C(F)(F)F)cc2)nc1C(=O)c1ccc(C(F)(F)F)cc1  rape (Brassica napus)         1
2  O=C(c1cccc(C(F)(F)F)c1)c1ccnc(-n2ccc(C(F)(F)F)n2)n1  rape (Brassica napus)         0
3  CCc1cnc(-n2ccc(C(F)(F)F)n2)nc1C(=O)c1cccc(C#N)c1  rape (Brassica napus)         3
4  CCc1cnc(-n2ccc(C(F)(F)F)n2)nc1C(=O)c1cccc(C(F)(F)F)c1  rape (Brassica napus)         6
5  Cc1cnc(-n2cnc(C(F)(F)F)n2)nc1C(=O)c1cccc(OC(F)(F)F)c1  rape (Brassica napus)         3
6  Cc1cnc(-n2cnc(C(F)(F)F)n2)nc1C(=O)c1cccc(C(F)(F)F)c1  rape (Brassica napus)         6

---

system: velvetleaf (Abutilon theophrasti); assay: Test B pre-/postemergence; type: in vivo; details: Rate 62 g/ha, Postemergence
Kindly apply the following: TRUE if Plant response rating, Velvetleaf is less than 7, FALSE in every other case.

>>> print(df.to_string())
                                   molecule  answer_label
0  Cc1cnc(-c2ccc(F)c(Cl)c2)nc1Cc1cccc(C#N)c1          TRUE
1  Cc1cnc(-c2ccc(C(F)(F)F)cc2)nc1Cc1cccc(OC(F)(F)F)c1          TRUE
2  CCc1cnc(-c2ccc(C(F)(F)F)cc2)nc1Cc1cccc(C(F)(F)F)c1         FALSE
3  CCc1cnc(-n2ccc(C(F)(F)F)n2)nc1Cc1cccc(C(F)(F)F)c1         FALSE
4  COC(c1cccc(C(F)(F)F)c1)c1nc(-c2ccc(C(F)(F)F)cc2)ncc1C (racemic)          TRUE
5  COC(=O)C(c1cccc(C(F)(F)F)c1)c1nc(-c2ccc(C(F)(F)F)cc2)ncc1C (racemic)          TRUE
6       Cc1cnc(-c2ccccc2F)nc1Cc1cccc(C#N)c1          TRUE
7  COc1cnc(-n2ccc(C(F)(F)F)n2)nc1Cc1cccc(C(F)(F)F)c1          TRUE
8  Cc1cnc(-c2cccc(C(F)(F)F)c2)nc1Cc1cccc(C#N)c1          TRUE

---

test system: smallflower flatsedge (Cyperus difformis); assay: Test B flood test; format: in vivo; parameters: key: 0 is no effect; 10 is complete control; conditions: Rate 125 g/ha, Postemergence section (flood test species)
Exam item: assign True to entries whose S. Flatsedge plant response rating is below 2 and False to entries at or above 2. Note that a value of exactly 2 receives False.

In [3]: df
Out[3]:
                                smiles_input  answer_label
 0  O=C(c1cccc(C(F)(F)F)c1)c1ccnc(-c2ccc(F)cc2F)n1          True
 1  Cc1cnc(-n2ccc(C(F)(F)C(F)(F)F)n2)nc1C(=O)c1cccc(C(F)(F)F)c1         False
 2  Cc1cnc(-c2ccc(F)c(Cl)c2)nc1Cc1cccc(C#N)c1         False
 3  CCc1cnc(-n2ccc(C(F)(F)F)n2)nc1C(=O)c1cccc(C(F)(F)F)c1         False
 4  CCc1cnc(-n2ccc(C(F)(F)F)n2)nc1C(=O)c1cccc(C#N)c1         False
 5  Cc1cnc(-c2ccc(C(F)(F)F)cc2)nc1Cc1cccc(C#N)c1         False
 6  Cc1cnc(-c2ccc(C(F)(F)F)cc2)nc1C(=O)c1ccc(C(F)(F)F)cc1          True
 7  Cc1cnc(-c2ccc(Cl)c(Cl)c2)nc1Cc1cccc(C(F)(F)F)c1         False
 8  Cc1cnc(-n2cnc(C(F)(F)F)n2)nc1C(=O)c1cccc(C(F)(F)F)c1         False
 9  Cc1cnc(-n2ccc(C(F)(F)F)n2)nc1C(=O)c1cccc(OC(F)(F)F)c1         False
10  CCc1cnc(-n2cnc(C(F)(F)F)n2)nc1Cc1cccc(OC(F)(F)F)c1         False
11       Cc1cnc(-c2ccccc2F)nc1Cc1cccc(C#N)c1          True
12  Cc1cnc(-c2ccc(C(F)(F)F)cc2)nc1Cn1cc(Br)cn1         False
13  Cc1cnc(-c2ccc(C(F)(F)F)cc2)nc1Cn1ccc(C#N)n1         False
14  COc1cnc(-n2ccc(C(F)(F)F)n2)nc1Cc1cccc(C(F)(F)F)c1          True

---

Items are presented alongside their recorded Plant response rating, B. signalgrass.
test system: broadleaf signalgrass (Brachiaria decumbens); test: Test B pre-/postemergence; format: in vivo; conditions: Rate 125 g/ha, Postemergence
endpoint.label: Plant response rating, B. signalgrass

In [3]: df
Out[3]:
                                   molecule  observed
0  Cc1cnc(-c2ccc(Cl)cc2)nc1Cc1cccc(C(F)(F)F)c1         5
1  COC(=O)C(c1cccc(C(F)(F)F)c1)c1nc(-c2ccc(C(F)(F)F)cc2)ncc1C (racemic)         2
2  Cc1cnc(-c2cccc(C(F)(F)F)c2)nc1Cc1cccc(C#N)c1         1
3  Cc1cnc(-c2ccc(C(F)(F)F)cc2)nc1Cn1ccc(C(F)(F)F)n1         8
